All figures here come from patent US11724992B2.

test system: IL-1β production in PMA-differentiated THP-1 cells; experiment: IL-1β production in PMA-differentiated THP-1 cells stimulated with gramicidin (hTHP-1 assay, 2% fetal bovine serum; Procedures 1-3); assay type: cell-based, human; details: Homo sapiens, THP-1, hTHP-1 assay containing 2% fetal bovine serum; class symbols; read-out: hTHP-1 IC50 (Average IC50 of compounds in hTHP-1 assay)
testReadout: IC50

Solved cases (2 shown):
CN(C)Cc1cc(F)c(S(N)(=O)=NC(=O)Nc2c3c(cc4c2CCC4)CCC3)s1 (stereo not drawn) :: 8 to 40 nM
CC(C)(O)c1ccc(S(N)(=O)=NC(=O)Nc2c3c(cc4c2CCC4)CCC3)cc1F (stereo not drawn) :: 1000 to 5000 nM

Supply IC50 value. Item: Cc1cc(S(N)(=O)=NC(=O)Nc2c(C(C)C)cc(OC(F)F)cc2C(C)C)sc1C(C)(C)O (stereo not drawn) 200 to 1000 nM

###

In this section, each of the compounds is paired with its reported pIC50.
tested on: IL-1β production in PMA-differentiated THP-1 cells; assay: IL-1β production in PMA-differentiated THP-1 cells stimulated with gramicidin (hTHP-1 assay, 2% fetal bovine serum; Procedures 1-3); assay type: cell-based, human; conditions: Homo sapiens, THP-1, hTHP-1 assay containing 2% fetal bovine serum; class symbols; read-out: hTHP-1 IC50 (Average IC50 of compounds in hTHP-1 assay)
pIC50: −log10 of the molar value.

Examples from the recorded data:
CC(C)c1cc(F)cc(C(C)C)c1NC(=O)N=S(N)(=O)c1cnc(C(C)(C)O)s1 (stereo not shown) :: 6.70 to 7.40
Cc1nc(C(C)(C)O)sc1S(N)(=O)=NC(=O)Nc1c2c(c(F)c3c1CCC3)CCC2 (stereo not shown) :: 7.40 to 8.10
CC(C)(O)c1cc(F)cc(S(N)(=O)=NC(=O)Nc2c3c(c(F)c4c2CCC4)CCC3)c1 (stereo not shown) :: 6.00 to 6.70

Kindly consider the entry below.
Please indicate recorded pIC50 of CC(C)(O)c1ccc(S(N)(=O)=NC(=O)Nc2c3c(c(Cl)c4c2CCC4)CCC3)c(F)c1 (stereo not shown) measured with IL-1β production in PMA-differentiated THP-1 cells. 6.70 to 7.40

###

tested on: IL-1β production in PMA-differentiated THP-1 cells; assay: IL-1β production in PMA-differentiated THP-1 cells stimulated with gramicidin (hTHP-1 assay, 2% fetal bovine serum; Procedures 1-3); type: cell-based, human; conditions: Homo sapiens, THP-1, hTHP-1 assay containing 2% fetal bovine serum; bound; read-out: hTHP-1 IC50 (Average IC50 of compounds in hTHP-1 assay)
pIC50: −log10 of the molar value.
testReadout: pIC50

Supply pIC50 measured with IL-1β production in PMA-differentiated THP-1 cells for CNS(=O)(=NC(=O)N(C)c1c2c(cc3c1CCC3)CCC2)c1cnc(C(C)(C)O)s1 (stereo not shown) . < 4.52

###

system: IL-1β production in PMA-differentiated THP-1 cells; experiment: IL-1β production in PMA-differentiated THP-1 cells stimulated with gramicidin (hTHP-1 assay, 2% fetal bovine serum; Procedures 1-3); type: cell-based, human; conditions: Homo sapiens, THP-1, hTHP-1 assay containing 2% fetal bovine serum; class symbols; read-out: hTHP-1 IC50 (Average IC50 of compounds in hTHP-1 assay)
IC50 values for the compounds below.

CC(C)(O)c1ncc(S(N)(=O)=NC(=O)Nc2cc3c(c4c2CCC4)CCC3)s1 (centres unmarked) [Example 285] :: 40 to 200 nM
CC(C)(O)c1cc(F)c(S(N)(=O)=NC(=O)Nc2c3c(cc4c2CCC4)CCC3)s1 (centres unmarked) [Example 269] :: 8 to 40 nM
CC(C)(O)c1cc(S(N)(=O)=NC(=O)Nc2c3c(c(F)c4c2CCC4)CCC3)ccc1F (centres unmarked) [Example 58] :: 1000 to 5000 nM
CC(C)(O)c1ncc([S@](N)(=O)=NC(=O)Nc2c3c(cc4c2CC4)CCC3)s1 (single isomer, unassigned) [Example 224] :: 8 to 40 nM

Report IC50, nothing else, for this compound: CC(C)(O)c1csc(S(N)(=O)=NC(=O)Nc2c3c(c(F)c4c2CCC4)CCC3)n1 (centres unmarked) [Example 61] 8 to 40 nM

Give reported IC50 value for CC(C)c1cc(C#N)c(F)c(C(C)C)c1NC(=O)N=S(N)(=O)c1cnc(C(C)(C)O)s1 (centres unmarked) [Example 15] 40 to 200 nM

Name the recorded IC50 of the item CN(C)Cc1ccc(S(N)(=O)=NC(=O)Nc2c3c(cc4c2CCC4)CCC3)c(F)c1 (centres unmarked) [Example 48] in your answer. 40 to 200 nM

Supply reported IC50 belonging to this compound: CC(C)(O)c1ccc(S(N)(=O)=NC(=O)Nc2c3c(cc4c2CCC4)CCC3)c(F)c1 (centres unmarked) [Example 13] 40 to 200 nM
